System: Adenosine receptor A2a (Bos taurus)
method.notes: Percent inhibition of specific [3H]-CGS-21,680 binding to adenosine A2A receptors in bovine striatal membranes at 10 uM concentration
property.label: inhibition

Worked cases, inhibition given:
- compound: "CCOC(=O)c1cnc2c(cnn2CC(Cl)COc2ccccc2)c1N1CCCC1 (centres undefined)"
  assay.system: "Adenosine receptor A2a (Bos taurus)"
  value.measured: "15%"
- compound: "CCOC(=O)c1cnc2c(cnn2CC(Cl)c2ccccc2)c1N1CCCCC1 (centres undefined)"
  assay.system: "Adenosine receptor A2a (Bos taurus)"
  value.measured: "23%"
- compound: "CCOCCNc1c(C(=O)OCC)cnc2c1cnn2/C=C/c1ccccc1"
  assay.system: "Adenosine receptor A2a (Bos taurus)"
  value.measured: "0%"

Quick one: give measured inhibition for CCOC(=O)c1cnc2c(cnn2CC(Cl)COc2ccccc2)c1NCCc1ccccc1 (centres undefined) 5%
